System: COLO 205 colon
methodSummary: NCI tumour cell line growth inhibition, 48 h; in the data active means GI50 below about 0.43 µM; inactive means the rest
Pick one: YES for active, NO for inactive

**Q:** I'd appreciate the recorded outcome for CC(=O)OC1CC2C3CCC4C[C@@H](NC(=O)C=C(C)C)CC[C@]4(C)C3CC[C@]2(C)[C@H]1C(C)N(C)C (stereo partly drawn) from this test.
**A:** NO

**Q:** Which outcome was assigned to OCc1ccc(N2CCc3ccccc3C2)cc1Cl in this test?
**A:** YES

**Q:** Test call, this compound: Cc1c(O)c2c(c(O)c1Br)C(=O)C=CC2=O
**A:** YES

**Q:** Write down the call the test reported for this compound. Item: Cn1c(=O)c(Oc2ccc(F)cc2F)cc2cnc(NC3CCS(=O)(=O)CC3)nc21
**A:** NO

**Q:** What outcome does the record of this test show for Clc1ccc(-c2cc(-c3ccccc3)nc(NCCNc3ccnc4cc(Cl)ccc34)n2)cc1 ?
**A:** NO

**Q:** How was C[C@@H](Oc1ccc(C(=O)NS(=O)(=O)C(C)(C)C)cc1C(F)(F)F)c1ccc(Oc2ccccc2)cn1 classified in this test?
**A:** NO

**Q:** // param item: COc1ccc(/C=C2\C=C(c3ccccc3)N(CCc3ccccc3)C2=O)cc1OC ; yields the recorded call
**A:** NO

**Q:** Test call, this compound: O=C(Nc1ccccc1)c1cc(S(=O)(=O)Nc2nc3ccccc3o2)c(SCc2ccccc2)cc1Cl
**A:** NO

**Q:** State the result this test recorded for COc1cc(-c2c(C#N)c(N)nc(N3CCOCC3)c2C#N)cc(OC)c1OC .
**A:** NO

**Q:** Recorded test call requested for COC1=CC(c2ccc[nH]2)=N/C1=C\c1[nH]c(C)c(C(=O)CCCCC(=O)Oc2ccc3c(c2)CCC2C3CC[C@]3(C)[C@@H](O)CC[C@@H]23)c1C (stereo partly drawn)
**A:** NO

**Q:** Hi, do you know how CCCCCCCCCCCCOC1C(CNC(=O)C2OC3OC(C)(C)OC3C2NC(=O)Nc2ccc(CC(=O)NC(Cc3ccccc3)C(=O)O)cc2)OC2OC(C)(C)OC21 (stereo not drawn) came out in this test?
**A:** NO

**Q:** What is the recorded call for this compound in the test? Cc1ccc(Cl)c(Nc2ccccc2C(=O)O)c1Cl
**A:** NO

**Q:** Entry Cn1cc(C2=C(c3cn(C)c4ccccc34)C(=O)NC2=O)c2ccccc21 : call = ?
**A:** NO
